# Assay protocol: change in splice reporter luminescence, either direction, cell-based, HEK293, spliceosome inhibition project, primary screen (AID 1101);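 note: HEK293 cells carrying a splicing-competent luciferase reporter gene; test concentration not given here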
# Assay setup: HEK293 splicing luciferase reporter, 24 h, higher = more signal, called active from +8 up or from −8 down
# binning rule on z-score: bottom = under -0.8, middle = from -0.8 up to -0.08, top = -0.08 and over

Exam item: Each compound maps to one class by z-score. Which class for CC1CC/C=C\[C@H]2OC34C=CCN(C(C)(C)C)C(=O)[C@H]3N(CCCO)C(=O)[C@@H]4C2C(=O)O1 (stereo not given in full) ?
Marked response: top

Exam item: Each compound maps to one class by z-score. Which class for Cc1ccc(F)cc1S(=O)(=O)N[C@H]1CCN(Cc2ccc(OC(C)C)cc2)C1 ?
Marked response: middle

Exam item: Each compound maps to one class by z-score. Which class for COC(=O)C1=CC(CCCO)=CC(c2cccs2)N(Cc2cc3c(cc2Br)OCO3)C=C1C(=O)OC (stereo not given) ?
Marked response: middle

Exam item: Each compound maps to one class by z-score. Which class for COC(=O)[C@@]1(Cc2ccc(OC)cc2)[C@H]2c3cc(C(=O)N4CCCC4)n(Cc4ccc(Cl)c(C(F)(F)F)c4)c3C[C@H]2CN1C(=O)c1ccccc1 ?
Marked response: middle

Exam item: Each compound maps to one class by z-score. Which class for CN(C)CCCNC(=O)[C@@H]1c2ccccc2C(=O)N(Cc2ccccc2C(F)(F)F)[C@H]1c1ccc(CO)cc1 ?
Marked response: top

Exam item: Each compound maps to one class by z-score. Which class for CO[C@H]1O[C@H](CO)[C@@H](OC(=O)Nc2ccccc2)[C@H](OC(=O)Nc2ccccc2)[C@H]1OC(=O)Nc1ccccc1 ?
Marked response: middle

Exam item: Each compound maps to one class by z-score. Which class for COc1ccc([Si](C)(C)[C@H]2[C@H](CCO)O[C@@]3(C(=O)N(Cc4cccc(N5C(=O)c6ccccc6Oc6ccccc65)c4)c4ccccc43)[C@@H]2C)cc1 ?
Marked response: bottom

Exam item: Each compound maps to one class by z-score. Which class for O=C(NCCN1CCOCC1)[C@@H]1c2ccccc2C(=O)N(Cc2ccccc2C(F)(F)F)[C@H]1c1ccc(CO)cc1 ?
Marked response: middle

Exam item: Each compound maps to one class by z-score. Which class for COC(=O)[C@@]1(Cc2ccc(OC)cc2)[C@H]2c3cc(C(=O)N4CCCC4)n(CCn4cc([N+](=O)[O-])nc4C)c3C[C@H]2CN1C(=O)c1ccccc1 ?
Marked response: top

Exam item: Each compound maps to one class by z-score. Which class for COc1ccc([Si](C)(C)[C@@H]2[C@@H](CC(=O)N(CCO)Cc3ccccc3)O[C@]3(C(=O)N(Cc4ccc(N5C(=O)c6cccc7cccc5c67)cc4)c4ccccc43)[C@H]2C)cc1 ?
Marked response: bottom

Exam item: Each compound maps to one class by z-score. Which class for O=C1C2C=CC(C(O)c3ccc([N+](=O)[O-])cc3)N(Nc3ccccc3F)C2C(=O)N1c1ccccc1 (stereo not given) ?
Marked response: top

Exam item: Each compound maps to one class by z-score. Which class for [N-]=[N+]=NCc1ccccc1[C@@H]1OC(c2ccc(OCCCO)cc2)=N[C@]1(Cc1ccccc1N=[N+]=[N-])C(=O)O ?
Marked response: bottom

Exam item: Each compound maps to one class by z-score. Which class for C=CCNC(=O)[C@H]1[C@@H]2C(=O)O[C@@H](c3ccccc3)[C@@H](c3ccccc3)N2[C@@H](c2ccc(OCCO)cc2)[C@]12C(=O)Nc1ccc(C#CC3(O)CCCCCC3)cc12 ?
Marked response: middle

Exam item: Each compound maps to one class by z-score. Which class for CCCC=C(CCC)[C@@H](NC(=O)c1ccc(C(F)(F)F)cc1)c1ccc(C(F)(F)F)cc1 ?
Marked response: bottom
